This collection of values is drawn from patent US20220056125A1.

- systemTested: T1, human PAR-2 (human, UniProt P55085 26-397)
- T1 sequence: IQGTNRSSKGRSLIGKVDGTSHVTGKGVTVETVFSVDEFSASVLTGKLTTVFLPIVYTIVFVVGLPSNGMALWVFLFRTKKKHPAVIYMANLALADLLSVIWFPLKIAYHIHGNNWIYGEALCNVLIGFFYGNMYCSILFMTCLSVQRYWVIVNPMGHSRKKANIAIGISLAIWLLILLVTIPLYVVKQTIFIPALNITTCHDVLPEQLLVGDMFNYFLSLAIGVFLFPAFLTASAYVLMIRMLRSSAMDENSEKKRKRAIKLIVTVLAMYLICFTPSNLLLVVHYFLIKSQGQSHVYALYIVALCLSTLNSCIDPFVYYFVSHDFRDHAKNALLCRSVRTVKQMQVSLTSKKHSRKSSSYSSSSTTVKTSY
- procedureDetails: cell-based or functional assay
Give IL-8 release in A549 cells IC50 for every item shown.
One number for each entry, in nM.

- binder: "P24E1102 (antibody, human IgG4 S228P, kappa, V domains shown, human IgG4 S228P K447del / kappa; also called Anti-PAR-2 (P24E1102); TEV-56192 P24E1102) VH: QVQLVQSGAEVKKPGSSVKVSCKASGFSLSSYAISWVRQAPGQGLEWMGVIWGNQNVYYAQKFQGRVTITADESTSTAYMELSSLRSEDTAVYYCARWKGYKDYPFDYWGQGTLVTVSS VL: EIVLTQSPATLSLSPGERATLSCRASQNVYKWLDWYQQKPGQAPRLLIYNANTRATGIPARFSGSGSGRDFTLTISSLEPEDFAVYYCQQHHSGWTFGGGTKVEIKR"
  observedResult: 4.62
- binder: "P24E1103 (antibody, human IgG4 S228P, kappa, V domains shown) VH: QVQLVQSGAEVKKPGSSVKVSCKASGFSLSSYAISWVRQAPGQGLEWMGVIWGNQNVYYAQKFQGRVTITADESTSTAYMELSSLRSEDTAVYYCARWKGYKDYPFDYWGQGTLVTVSS VL: EIVLTQSPATLSLSPGERATLSCRASQNVYKWLDWYQQKPGQAPRLLIYNANNRATGIPARFSGSGSGRDFTLTISSLEPEDFAVYYCQQHHSGWTFGGGTKVEIKR"
  observedResult: 5.17
- binder: "P24E1099 (antibody, human IgG4 S228P, kappa, V domains shown) VH: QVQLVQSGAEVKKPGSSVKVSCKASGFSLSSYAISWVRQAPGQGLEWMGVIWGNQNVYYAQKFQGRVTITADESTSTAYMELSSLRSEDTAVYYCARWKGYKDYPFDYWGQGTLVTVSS VL: EIVLTQSPATLSLSPGERATLSCRASQNVYKWLDWYQQKPGQAPRLLIYNANSRATGIPARFSGSGSGRDFTLTISSLEPEDFAVYYCQQHHSGWTFGGGTKVEIKR"
  observedResult: 4.89

Switching to the query record.
## Input Recall and state the measured IL-8 release in A549 cells IC50 for P24E976 (antibody, human IgG4 S228P, kappa, V domains shown) VH: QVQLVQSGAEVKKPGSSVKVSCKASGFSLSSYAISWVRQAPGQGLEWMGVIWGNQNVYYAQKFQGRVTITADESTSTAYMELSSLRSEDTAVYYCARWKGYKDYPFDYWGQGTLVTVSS VL: EIVLTQSPATLSLSPGERATLSCRASQNVYKWLDWYQQKPGQAPRLLIYNAYSRATGIPARFSGSGSGRDFTLTISSLEPEDFAVYYCQQHHSGWTFGGGTKVEIKR .
## Output 4.25
